Tested on: MDA-MB-435
Experiment: NCI tumour cell line growth inhibition, 48 h
Exercise: state measured TGI for each of the compounds provided.

As a guide, the following entries are already answered.
{"compound": "Cc1c(C2CCSc3ccccc3N2)sc2ccccc12 (stereo not given)", "TGI": "> 100 µM"}
{"compound": "Nc1ccc(C(=O)O)cc1", "TGI": "> 100 µM"}
{"compound": "Cc1cc2nc(-c3ccc(O)c(O)c3)n(Cc3ccc(O)c(O)c3)c2cc1C", "TGI": "> 100 µM"}
{"compound": "CCOC(=O)C1=C(C)N(Cc2ccccc2)C2(O)C(OC)CC(=O)C3C(=O)N(c4ccccc4)C(=O)C132 (stereo not given)", "TGI": "> 100 µM"}

*Q* Read the entry CNc1nc(-c2ccc3c(N)n[nH]c3c2)cc(N2C[C@@H](C(=O)NC3CCCCC3)CC[C@H]2C)n1 and write its reported TGI.
*A* 14.4 µM

###

Test system: MDA-MB-435
Experiment: NCI tumour cell line growth inhibition, 48 h
Where a SMILES comes first, the peptide text is derived from it. [ ]: non-standard residue; d: D form.
Lab note: compare TGI against 30 µM. Equal or greater, write MET. Smaller, write NOT MET.

{"compound": "CC1=C(SCCC(=O)OC(C[Se]C2=C(C)C(=O)c3ccccc3C2=O)C(=O)NC(C)(C)C)C(=O)c2ccccc2C1=O (stereo not given)", "class.label": "NOT MET"}
{"compound": "Cc1ccc2c(c1)Nc1ccccc1P2(=O)O", "class.label": "MET"}
{"compound": "CCSc1nc(N)c2cnn(CC)c2n1", "class.label": "MET"}
{"compound": "Cc1oc2nc(N(C)C)n3cnnc3c2c1C", "class.label": "MET"}
{"compound": "CC(=O)/C(=C/N1CCN(C(=O)c2ccco2)C1=S)C(=O)c1ccccc1", "class.label": "MET"}
{"compound": "C[C@@H](C[C@H](CCO)c1ccccc1)c1ccc2ccccc2c1", "class.label": "NOT MET"}

*Q* Is TGI for COc1ccc(/C=C(/c2ccc(OC)cc2)c2c(Cl)cc(Cl)c(/C(=C\c3ccc(OC)cc3)c3ccc(OC)cc3)c2N=Nc2ccccc2)cc1 at or above 30 µM?
*A* MET

*Q* Is TGI for CSCC[C@H](NC(=O)[C@@H](N)CC(N)=O)C(=O)N[C@@H](Cc1c[nH]c2ccccc12)C(=O)N[C@@H](CCC(N)=O)C(=O)N[C@@H](CCC(=O)O)C(=O)N[C@H](C(=O)NCC(=O)N[C@@H](CCCCN)C(=O)N[C@H](C)C(=O)O)C(C)C (H-NMWQEVGK[dA]-OH) at or above 30 µM?
*A* MET

*Q* Is TGI for O=C(/C=C/c1ccc(Cl)cc1Cl)c1ccc(Cl)cc1Cl at or above 30 µM?
*A* MET

###

Tested on: SR leukemia
Assay: NCI tumour cell line growth inhibition, 48 h; in the data active means GI50 below about 0.43 µM; inactive means the rest
Outcomes you can answer with include only these: label 1 for active, label 0 for inactive

{"compound.structure.string": "CSc1nc2ccc(C)cc2cc1/C=C1/C=C(c2ccccc2)NC1=O", "class.label": "label 0"}
{"compound.structure.string": "CCSc1nc(N)c2cnn(CC)c2n1", "class.label": "label 0"}
{"compound.structure.string": "Cn1cccc1-c1cc(-c2ccccc2)nc(N)c1C#N", "class.label": "label 0"}
{"compound.structure.string": "COc1ccc(/C=C/C(=O)c2ccc(Nc3nc(Nc4ccc(F)cc4)nc(Nc4ccc(F)cc4)n3)cc2)cc1", "class.label": "label 0"}
{"compound.structure.string": "CC(=O)[O][Hg][c]1s[c]([Hg][O]C(C)=O)[c]([Hg][O]C(C)=O)[c]1[Hg][O]C(C)=O", "class.label": "label 0"}

*Q* Recorded call for O=C(/C=C/c1ccc(Cl)cc1Cl)c1ccc(Cl)cc1Cl ?
*A* label 0

*Q* Recorded call for COc1cc2c(=O)n(CC3CCCCC3)c3c4cc[nH]c4ncc3c2cc1OC ?
*A* label 1

*Q* Recorded call for c1ccc(-c2cc3n4c(-c5ccccc5)nn(-c5ccccc5)c4cnc-3n2)cc1 ?
*A* label 0

*Q* Recorded call for Cc1c2ccccc2c(C)n2c1nc1cc(Cl)c(Cl)cc12 ?
*A* label 0

*Q* Recorded call for CCCCCCCCc1cc(O)ccc1O ?
*A* label 0

###

Exercise: state measured TGI for each of the compounds provided.
System: HCC-2998 colon
Assay: NCI tumour cell line growth inhibition, 48 h

As a guide, the following entries are already answered.
{"compound": "CCCCOP1(=O)CC(C)=C(Cl)C(C)(OC)C1 (stereo unspecified)", "TGI": "> 100 µM"}
{"compound": "COC(=O)C#CC(N)=O", "TGI": "> 100 µM"}
{"compound": "NC(=S)NS(=O)(=O)c1ccc(Cl)cc1", "TGI": "> 100 µM"}
{"compound": "CC1/C(=N/O)CC(c2ccccc2)N(N=O)C1c1ccccc1 (stereo unspecified)", "TGI": "> 100 µM"}
{"compound": "CC[C@@H](C(=O)[C@@H](C)[C@@H](O)[C@H](C)[C@@H]1O[C@@H]([C@@H](CC)C(=O)O)CC[C@@H]1C)[C@H]1O[C@]2(C=C[C@@H](O)[C@]3(CC[C@@](C)([C@H]4CC[C@](O)(CC)[C@H](C)O4)O3)O2)[C@H](C)C[C@@H]1C", "TGI": "13 µM"}
{"compound": "CCOC(=O)Cc1cc(=O)[nH]c(-n2[nH]c(C)c(CCO)c2=O)n1", "TGI": "> 100 µM"}
{"compound": "CCCC(=O)OC(OC(=O)CCC)c1ccc([N+](=O)[O-])o1", "TGI": "32.1 µM"}
{"compound": "CCc1n[nH]c(=O)[nH]1", "TGI": "> 100 µM"}

# per-item lookup of TGI; items listed below
1. Nc1c(C(=O)O)nnc2cc(Cl)ccc12
2. CC1=C2C3OC(=O)C(C)C3C(O)C[C@@]2(C)C(=O)CC1 (stereo partly specified)
3. COc1cc(-c2nc(SC)nc3c2CCc2ccccc2-3)cc(OC)c1OC
4. Oc1ccc(O)c(-n2cccn2)c1-n1cccn1

*A*
1. > 100 µM
2. > 100 µM
3. > 100 µM
4. > 100 µM

# per-item lookup of TGI; items listed below
1. O=C1c2cc3ncsc3cc2C(=O)c2c(O)ccc(O)c21
2. O=C1CC2OCC=C3CN4CCC5(C(=O)O)C(N1)C2C3CC45 (stereo unspecified)
3. COc1ccc(F)cc1-c1ccnc2[nH]c(C3=CCN(C4CCC(CC(=O)O)CC4)CC3)cc12 (stereo unspecified)
4. c1ccc(OCc2nnc(CCCCCCCCc3nnc(COc4ccccc4)o3)o2)cc1
5. Cc1ccc2c(c1)Nc1ccccc1P2(=O)O
6. CCCCCCCCCCCCCCCCCCNc1nc(=O)n(C2CC(OP(=O)(O)OCC3OC(n4cc(F)c(=O)[nH]c4=O)CC3O)C(CO)O2)cc1F (stereo unspecified)
7. Cc1cc(OCc2nnc3n2N=C(c2cc(F)c(Cl)cc2Cl)/C(=C/c2ccc(-c4ccc(Cl)cc4)o2)S3)ccc1Cl
8. O=c1onc(Nc2ccccc2)n1-c1ccccc1

*A*
1. > 100 µM
2. > 100 µM
3. > 100 µM
4. > 100 µM
5. > 100 µM
6. 52.9 µM
7. > 50 µM
8. > 100 µM

*Q* Read the entry CC1(C2CCC3(C)C(C2)C3Sc2ccccc2)OCCO1 (stereo unspecified) and write its reported TGI.
*A* 39.2 µM

###

Exercise: state measured TGI for each of the compounds provided.
System: K-562 leukemia
Assay: NCI tumour cell line growth inhibition, 48 h

{"compound": "CC1=C(C(=O)NCc2ccccc2)C(c2ccco2)C(C(=O)NCc2ccccc2)=C(C)N1", "TGI": "> 100 µM"}
{"compound": "Cc1nc(-n2nc(-c3ccccc3)cc2-c2ccccc2)sc1C(=O)CC(=O)C(=O)Nc1ccc(O)cc1", "TGI": "> 100 µM"}

# per-item lookup of TGI; items listed below
1. CCOC(=O)CN1C(=O)C(=O)N(c2ccc(OC)c3ccccc23)C1=O
2. O=S(=O)(O)c1cc(N=[N+]([O-])c2ccc(N=Nc3ccccc3)cc2S(=O)(=O)O)ccc1/C=C/c1ccc(N=[N+]([O-])c2ccc(N=Nc3ccccc3)cc2S(=O)(=O)O)cc1S(=O)(=O)O
3. O=C(Cn1c(=O)oc2ccc(C(=O)c3cccc(Cl)c3)cc21)c1ccccc1

*A*
["> 100 µM", "> 100 µM", "> 100 µM"]

# per-item lookup of TGI; items listed below
1. CC[C@@H](C(=O)[C@@H](C)[C@@H](O)[C@H](C)[C@@H]1O[C@@H]([C@@H](CC)C(=O)O)CC[C@@H]1C)[C@H]1O[C@]2(C=C[C@@H](O)[C@]3(CC[C@@](C)([C@H]4CC[C@](O)(CC)[C@H](C)O4)O3)O2)[C@H](C)C[C@@H]1C
2. COc1cccc(N(CN2C(=O)CCC2OC)C(C)=O)c1 (configuration not stated)
3. O=C1/C(=C/c2ccc(O)cc2)Oc2ccccc21
4. CC(C)(C)CC(C)(C)NCC(O)COc1ccc(C(C)(C)c2ccc(OCC(O)CNC(C)(C)CC(C)(C)C)cc2)cc1 (configuration not stated)
5. CCOC(=O)Cc1cc(=O)[nH]c(-n2[nH]c(C)c(CCO)c2=O)n1
6. Cc1cc(S(=O)(=O)Nc2n[nH]c(Nc3ccccc3)n2)c(SSc2cc(Cl)c(C)cc2S(=O)(=O)Nc2n[nH]c(Nc3ccccc3)n2)cc1Cl
7. CCCCOc1ccc(S(=O)(=O)/N=C(\NO)Nc2ccc(Cl)cc2)cc1

*A*
["5.72 µM", "> 100 µM", "> 100 µM", "1.16 µM", "> 100 µM", "> 100 µM", "41.2 µM"]
